Numbers sourced from patent US8288423B2.

For each record, write down the corresponding PT.
Test system: Citrated plasma
Assay notes: Measurement of PT (prothrombin time) in citrated plasma
Type: biochemical
Measurement parameters: STA-Neoplastine, 37° C., unit not given (2×PT value)
Number, no unit, nothing else.

Lab entry: Citrated plasma assay, molecule CC1=NCCN1c1ccc(N2C[C@H](CNC(=O)c3ccc(Cl)s3)OC2=O)cc1 , PT = 0.03

Lab entry: Citrated plasma assay, molecule O=C(NC[C@H]1CN(c2ccc(N3CCN=C3c3ccco3)cc2)C(=O)O1)c1ccc(Cl)s1 , PT = 0.07

Lab entry: Citrated plasma assay, molecule O=C(NC[C@H]1CN(c2ccc(N3CCN=C3C3CC3)cc2)C(=O)O1)c1ccc(Cl)s1 , PT = 0.04

Lab entry: Citrated plasma assay, molecule O=C(NC[C@H]1CN(c2ccc(N3CCN=C3c3ccccn3)cc2)C(=O)O1)c1ccc(Cl)s1 , PT = 0.95

* * *

For each record, write down the corresponding Ki.
System under test: factor Xa (Homo sapiens, UniProt P00742)
Construct: purchased Enzyme Research Laboratories
Sequence (P00742 235-488 limits assumed): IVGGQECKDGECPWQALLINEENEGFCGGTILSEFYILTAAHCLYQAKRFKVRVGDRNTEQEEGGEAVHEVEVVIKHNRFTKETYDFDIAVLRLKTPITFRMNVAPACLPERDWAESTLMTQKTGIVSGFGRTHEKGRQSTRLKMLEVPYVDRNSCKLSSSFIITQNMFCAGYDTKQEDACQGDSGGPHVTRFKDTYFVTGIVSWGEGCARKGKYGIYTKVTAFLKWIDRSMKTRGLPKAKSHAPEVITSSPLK
Sequence (P00742 41-179 partner limits assumed): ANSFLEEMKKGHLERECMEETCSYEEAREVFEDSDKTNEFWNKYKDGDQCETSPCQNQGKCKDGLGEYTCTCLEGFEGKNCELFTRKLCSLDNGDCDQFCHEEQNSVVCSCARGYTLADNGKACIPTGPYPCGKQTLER
Assay notes: Inhibiting activity of factor Xa inhibitor (chromogenic substrate S-2765)
Format: biochemical
Measurement parameters: calculated from IC50 by Equation 1, Km 125 μM; S-2765 substrate, pH 7.8, 37° C.; read-out: Ki (nM), factor Xa inhibition constant
Report the figure in nM without appending any unit label.

Ki in this record for COC(=O)C(C)(C)C1=NCCN1c1ccc(N2C[C@H](CNC(=O)c3ccc(Cl)s3)OC2=O)cc1 [Compound 136] : 1.78

Ki in this record for Cc1csc(C2=NCCN2c2ccc(N3C[C@H](CNC(=O)c4ccc(Cl)s4)OC3=O)cc2)n1 [Compound 130] : 8.6

Ki in this record for O=C(NC[C@H]1CN(c2ccc(C3=NCCCN3)cc2)C(=O)O1)c1ccc(Cl)s1 [Compound 106] : 13.1

Ki in this record for CC(C)=CC1=NCCN1c1ccc(N2C[C@H](CNC(=O)c3ccc(Cl)s3)OC2=O)cc1 [Compound 121] : 1.81

Ki in this record for O=C(NC[C@H]1CN(c2ccc(N3CCN=C3c3ccncc3)cc2)C(=O)O1)c1ccc(Cl)s1 [Compound 126] : 12.8

Ki in this record for CCN1CCN=C1c1ccc(N2C[C@H](CNC(=O)c3ccc(Cl)s3)OC2=O)cc1F [Compound 110] : 4.4

Ki in this record for COC(=O)C1(C2=NCCN2c2ccc(N3C[C@H](CNC(=O)c4ccc(Cl)s4)OC3=O)cc2)CC1 [Compound 135] : 31.5

Ki in this record for O=C(NC[C@H]1CN(c2ccc(N3CCN=C3c3ccco3)cc2)C(=O)O1)c1ccc(Cl)s1 [Compound 123] : 0.39

Ki in this record for CCN1CCN=C1c1ccc(N2C[C@H](CNC(=O)c3ccc(Cl)s3)OC2=O)cc1Cl [Compound 112] : 4.05

Ki in this record for O=C(NC[C@H]1CN(c2ccc(N3CCN=C3c3ccc(Cl)s3)cc2)C(=O)O1)c1ccc(Br)s1 [Compound 140] : 2.63

Ki in this record for CCN1CCN=C1c1ccc(N2C[C@H](CNC(=O)c3ccc(Br)s3)OC2=O)cc1 [Compound 109] : 4.67

Ki in this record for CN1CCCN=C1c1ccc(N2C[C@H](CNC(=O)c3ccc(Cl)s3)OC2=O)cc1F [Compound 111] : 10.5

Ki in this record for CCN1CCN=C1c1ccc(N2C[C@H](CNC(=O)c3ccc(Cl)s3)OC2=O)cc1 [Compound 102] : 3.43

* * *

For each record, write down the corresponding PT.
System: Citrated plasma
Assay notes: Measurement of PT (prothrombin time) in citrated plasma
Assay type: biochemical
Measurement parameters: STA-Neoplastine, 37° C., unit not given (2×PT value)
Number, no unit, nothing else.

PT in this record for O=C(NC[C@H]1CN(c2ccc(N3CCN=C3c3ccncc3)cc2)C(=O)O1)c1ccc(Cl)s1 : 0.16

PT in this record for O=C(NC[C@H]1CN(c2ccc(N3CCN=C3c3ccco3)cc2)C(=O)O1)c1ccc(Br)s1 : 0.07

PT in this record for O=C(NC[C@H]1CN(c2ccc(N3CCN=C3c3cccc(Cl)c3)cc2)C(=O)O1)c1ccc(Cl)s1 : 0.26

PT in this record for CCN1CCN=C1c1ccc(N2C[C@H](CNC(=O)c3ccc(Cl)s3)OC2=O)cc1Cl : 0.05

PT in this record for O=C(NC[C@H]1CN(c2ccc(N3CCN=C3c3ccoc3)cc2)C(=O)O1)c1ccc(Cl)s1 : 0.07

PT in this record for C=C(C)C1=NCCN1c1ccc(N2C[C@H](CNC(=O)c3ccc(Cl)s3)OC2=O)cc1 : 0.31

PT in this record for O=C(NC[C@H]1CN(c2ccc(N3CCN=C3c3ccc(Cl)s3)cc2)C(=O)O1)c1ccc(Cl)s1 : 0.29

PT in this record for CN1CCN=C1c1ccc(N2C[C@H](CNC(=O)c3ccc(Br)s3)OC2=O)cc1 : 0.03

PT in this record for O=C(NC[C@H]1CN(c2ccc(N3CCN=C3c3ccc(C(F)(F)F)cc3)cc2)C(=O)O1)c1ccc(Cl)s1 : 0.36

* * *

System under test: factor Xa (Homo sapiens, UniProt P00742)
Construct: purchased Enzyme Research Laboratories
Assay notes: Inhibiting activity of factor Xa inhibitor (chromogenic substrate S-2765)
Assay type: biochemical
Measurement parameters: calculated from IC50 by Equation 1, Km 125 μM; S-2765 substrate, pH 7.8, 37° C.; read-out: Ki (nM), factor Xa inhibition constant
Ki strictly under 4 nM means yes; at 4 nM or over means no.

Query :: API: query returns whether the compound falls strictly under 4 nM in Ki. Query: CN1CCN=C1c1ccc(N2C[C@H](CNC(=O)c3ccc(Cl)s3)OC2=O)cc1
Result :: yes

Query :: API: query returns whether the compound falls strictly under 4 nM in Ki. Query: CCC1=NCCN1c1ccc(N2C[C@H](CNC(=O)c3ccc(Cl)s3)OC2=O)cc1
Result :: yes

Query :: API: query returns whether the compound falls strictly under 4 nM in Ki. Query: O=C(NC[C@H]1CN(c2ccc(N3CCN=C3C3CC3)cc2)C(=O)O1)c1ccc(Cl)s1
Result :: yes

Query :: API: query returns whether the compound falls strictly under 4 nM in Ki. Query: CC1=NCCN1c1ccc(N2C[C@H](CNC(=O)c3ccc(Br)s3)OC2=O)cc1
Result :: yes

Query :: API: query returns whether the compound falls strictly under 4 nM in Ki. Query: O=C(NC[C@H]1CN(c2ccc(N3CCN=C3c3cccc(Cl)c3)cc2)C(=O)O1)c1ccc(Cl)s1
Result :: yes

Query :: API: query returns whether the compound falls strictly under 4 nM in Ki. Query: CC1=NCCN1c1ccc(N2C[C@H](CNC(=O)c3ccc(Cl)s3)OC2=O)cc1
Result :: yes

Query :: API: query returns whether the compound falls strictly under 4 nM in Ki. Query: O=C(NC[C@H]1CN(c2ccc(C3=NCCN3)cc2)C(=O)O1)c1ccc(Cl)s1
Result :: no

Query :: API: query returns whether the compound falls strictly under 4 nM in Ki. Query: C=C(C)C1=NCCN1c1ccc(N2C[C@H](CNC(=O)c3ccc(Cl)s3)OC2=O)cc1
Result :: no

Query :: API: query returns whether the compound falls strictly under 4 nM in Ki. Query: O=C(NC[C@H]1CN(c2ccc(N3CCN=C3c3ccoc3)cc2)C(=O)O1)c1ccc(Cl)s1
Result :: yes

Query :: API: query returns whether the compound falls strictly under 4 nM in Ki. Query: O=C(NC[C@H]1CN(c2ccc(N3CCN=C3c3ccccn3)cc2)C(=O)O1)c1ccc(Cl)s1
Result :: no

Query :: API: query returns whether the compound falls strictly under 4 nM in Ki. Query: CN1CCCN=C1c1ccc(N2C[C@H](CNC(=O)c3ccc(Cl)s3)OC2=O)cc1Cl
Result :: no

Query :: API: query returns whether the compound falls strictly under 4 nM in Ki. Query: CCC1=NCCCN1c1ccc(N2C[C@H](CNC(=O)c3ccc(Cl)s3)OC2=O)cc1
Result :: yes

Query :: API: query returns whether the compound falls strictly under 4 nM in Ki. Query: O=C(NC[C@H]1CN(c2ccc(N3CCN=C3c3ccco3)cc2)C(=O)O1)c1ccc(Br)s1
Result :: yes

Query :: API: query returns whether the compound falls strictly under 4 nM in Ki. Query: Cc1ccc(C2=NCCN2c2ccc(N3C[C@H](CNC(=O)c4ccc(Cl)s4)OC3=O)cc2)cc1
Result :: yes

Query :: API: query returns whether the compound falls strictly under 4 nM in Ki. Query: CC(C)CC1=NCCN1c1ccc(N2C[C@H](CNC(=O)c3ccc(Cl)s3)OC2=O)cc1
Result :: yes

* * *

System under test: factor Xa (Homo sapiens, UniProt P00742)
Construct: purchased Enzyme Research Laboratories
Assay notes: Inhibiting activity of factor Xa inhibitor (chromogenic substrate S-2765)
Type: biochemical
Measurement parameters: calculated from IC50 by Equation 1, Km 125 μM; S-2765 substrate, pH 7.8, 37° C.; read-out: Ki (nM), factor Xa inhibition constant
Ki strictly under 2 nM means rule met; at 2 nM or over means rule not met.

Query :: API: query returns whether the compound falls strictly under 2 nM in Ki. Query: O=C(NC[C@H]1CN(c2ccc(N3CCN=C3c3ccc(Cl)s3)cc2)C(=O)O1)c1ccc(Cl)s1 [Compound 132]
Result :: rule met

Query :: API: query returns whether the compound falls strictly under 2 nM in Ki. Query: O=C(NC[C@H]1CN(c2ccc(N3C=NCC3)cc2)C(=O)O1)c1ccc(Cl)s1 [Compound 115]
Result :: rule met

Query :: API: query returns whether the compound falls strictly under 2 nM in Ki. Query: O=C(NC[C@H]1CN(c2ccc(N3CCN=C3c3cccnc3)cc2)C(=O)O1)c1ccc(Cl)s1 [Compound 127]
Result :: rule not met

Query :: API: query returns whether the compound falls strictly under 2 nM in Ki. Query: Cc1ccc(C2=NCCN2c2ccc(N3C[C@H](CNC(=O)c4ccc(Cl)s4)OC3=O)cc2)s1 [Compound 131]
Result :: rule met

Query :: API: query returns whether the compound falls strictly under 2 nM in Ki. Query: CN1CCN=C1c1ccc(N2C[C@H](CNC(=O)c3ccc(Br)s3)OC2=O)cc1 [Compound 108]
Result :: rule not met

Query :: API: query returns whether the compound falls strictly under 2 nM in Ki. Query: O=C(NC[C@H]1CN(c2ccc(N3CCN=C3C3CCOC3)cc2)C(=O)O1)c1ccc(Cl)s1 (some centres unmarked) [Compound 125]
Result :: rule not met

Query :: API: query returns whether the compound falls strictly under 2 nM in Ki. Query: CN1CCCN=C1c1ccc(N2C[C@H](CNC(=O)c3ccc(Cl)s3)OC2=O)cc1 [Compound 107]
Result :: rule not met

Query :: API: query returns whether the compound falls strictly under 2 nM in Ki. Query: O=C(NC[C@H]1CN(c2ccc(N3CCN=C3C3CCC3)cc2)C(=O)O1)c1ccc(Cl)s1 [Compound 118]
Result :: rule not met
